Taken from ChEMBL document CHEMBL4251655.

- TEST_TARGET: Mitogen-activated protein kinase kinase kinase kinase 4 (Homo sapiens)
- METHOD: Inhibition of recombinant human GST-tagged MAP4K4 (1 to 328 residues) expressed in baculovirus expression system at 1 uM relative to control
QUANTITY_MEASURED: inhibition (%)
Lab book: enter the figure in %, no units written.

input: I'd like to know its inhibition. The compound in question is `COc1cc(C)c(C(N)=O)cc1C(=O)Nc1cccc(-c2nncn2C(C)C)n1`
output: 85

input: Name the reported inhibition value associated with the compound `COc1ccc(S(C)(=O)=O)cc1C(=O)Nc1cccc(-c2nncn2C(C)C)n1`
output: 12

input: # lookup: inhibition of `COc1ccc(S(N)(=O)=O)cc1C(=O)Nc1cccc(-c2nncn2C(C)C)n1`
output: 18

input: Report inhibition for `COc1ccc(C(N)=O)cc1C(=O)Nc1cccc(-c2nncn2C(C)C)n1` please.
output: 18

input: Item `COc1cc(C)c(S(C)(=O)=O)cc1C(=O)Nc1cccc(-c2nncn2C(C)C)n1` has what recorded inhibition?
output: 20

input: Item `COc1cc(C)c(S(N)(=O)=O)cc1C(=O)Nc1cccc(-c2nncn2C(C)C)n1` has what recorded inhibition?
output: 44

###

- TEST_TARGET: UniProt Q06187
- Sequence (Q06187 whole entry): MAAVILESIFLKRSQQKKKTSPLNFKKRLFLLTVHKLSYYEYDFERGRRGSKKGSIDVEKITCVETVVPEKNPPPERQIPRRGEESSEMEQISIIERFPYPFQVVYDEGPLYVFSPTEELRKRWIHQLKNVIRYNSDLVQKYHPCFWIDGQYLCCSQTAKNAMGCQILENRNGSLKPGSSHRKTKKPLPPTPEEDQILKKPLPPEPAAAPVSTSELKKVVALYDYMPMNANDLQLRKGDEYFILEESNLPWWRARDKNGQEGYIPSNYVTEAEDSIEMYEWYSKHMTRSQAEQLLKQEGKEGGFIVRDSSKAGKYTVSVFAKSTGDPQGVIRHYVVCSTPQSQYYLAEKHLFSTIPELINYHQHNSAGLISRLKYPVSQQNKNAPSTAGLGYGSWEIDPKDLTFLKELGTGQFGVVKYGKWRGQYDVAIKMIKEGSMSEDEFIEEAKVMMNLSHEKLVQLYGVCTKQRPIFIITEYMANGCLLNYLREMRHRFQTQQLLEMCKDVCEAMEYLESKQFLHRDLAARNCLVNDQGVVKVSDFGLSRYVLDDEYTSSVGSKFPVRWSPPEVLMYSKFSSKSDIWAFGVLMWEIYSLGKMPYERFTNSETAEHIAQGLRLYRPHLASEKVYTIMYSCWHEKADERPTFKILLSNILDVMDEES
- METHOD: Inhibition of recombinant full length human His-tagged BTK expressed in baculovirus expression system at 1 uM relative to control
QUANTITY_MEASURED: inhibition

input: Lookup: inhibition / UniProt Q06187 / `COc1ccc(S(N)(=O)=O)cc1C(=O)Nc1cccc(-c2nncn2C(C)C)n1`
output: -3%

input: Identify the measured inhibition of `COc1ccc(S(C)(=O)=O)cc1C(=O)Nc1cccc(-c2nncn2C(C)C)n1` for UniProt Q06187.
output: 0%

input: # returns recorded inhibition (system: UniProt Q06187) for `COc1ccc(C(N)=O)cc1C(=O)Nc1cccc(-c2nncn2C(C)C)n1`
output: -5%

input: GET /values?readout=inhibition&system=UniProt Q06187&item= `COc1cc(C)c(S(N)(=O)=O)cc1C(=O)Nc1cccc(-c2nncn2C(C)C)n1`
output: 0%

input: Missing value: inhibition, UniProt Q06187, entry `COc1cc(C)c(C(N)=O)cc1C(=O)Nc1cccc(-c2nncn2C(C)C)n1` . Fill in?
output: -4%

input: Record `COc1cc(C)c(S(C)(=O)=O)cc1C(=O)Nc1cccc(-c2nncn2C(C)C)n1` : what is its inhibition with UniProt Q06187?
output: 5%

###

What inhibition was measured for each of the following?
- TEST_TARGET: Tyrosine-protein kinase Lck (Homo sapiens)
- METHOD: Inhibition of recombinant human full length His-tagged LCK expressed in baculovirus expression system at 1 uM relative to control
Numbers only; they are read as %.

input: Entry `COc1ccc(S(C)(=O)=O)cc1C(=O)Nc1cccc(-c2nncn2C(C)C)n1` , system Tyrosine-protein kinase Lck (Homo sapiens): what inhibition was measured?
output: 4

input: Give Tyrosine-protein kinase Lck (Homo sapiens) inhibition for `COc1ccc(S(N)(=O)=O)cc1C(=O)Nc1cccc(-c2nncn2C(C)C)n1`
output: 8

input: Observed inhibition on Tyrosine-protein kinase Lck (Homo sapiens) for `COc1cc(C)c(S(C)(=O)=O)cc1C(=O)Nc1cccc(-c2nncn2C(C)C)n1` , please.
output: -6

input: Lab note: need inhibition with Tyrosine-protein kinase Lck (Homo sapiens) for entry `COc1cc(C)c(S(N)(=O)=O)cc1C(=O)Nc1cccc(-c2nncn2C(C)C)n1` , please look it up.
output: 11

input: inhibition of `COc1ccc(C(N)=O)cc1C(=O)Nc1cccc(-c2nncn2C(C)C)n1` on Tyrosine-protein kinase Lck (Homo sapiens)?
output: 13

input: Test system Tyrosine-protein kinase Lck (Homo sapiens); read-out inhibition; what value for `COc1cc(C)c(C(N)=O)cc1C(=O)Nc1cccc(-c2nncn2C(C)C)n1` ?
output: 4
